The values you see were collected from patent US7745495B2.

Listed below: Pre-emergent Herbicidal Activity: Abutilon values for each entry.
Tested on: Abutilon
Assay: Pre-emergence herbicidal action
Format: in vivo
Settings: Table B3; 15 g/ha; rating 10=total damage, 0=no action
Simply state the number, no unit and no words.

Illustrative cases are given below, each with its answer.
• COCCCc1nc(C(F)(F)F)ccc1C(=O)C1C(=O)C2CCC(C2)C1=O (centres unmarked) = 9
• COCCCCc1nc(C(F)(F)F)ccc1C(=O)C1C(=O)C2CCC(C2)C1=O (centres unmarked) = 8
• COC/C=C\c1nc(C(F)(F)F)ccc1C(=O)C1C(=O)C2CCC(C2)C1=O (centres unmarked) = 3
• COCCc1nc(C(F)(F)F)ccc1C(=O)C1C(=O)C2CCC(C2)C1=O (centres unmarked) = 9

With those in mind, consider the next compound.
query: Dear colleague, I am looking for the recorded Pre-emergent Herbicidal Activity: Abutilon of the following compound: COCc1nc(C(F)(F)F)ccc1C(=O)C1C(=O)C2CCC(C2)C1=O (centres unmarked)
result: 8
